Test system: KETR3
Test: Cytotoxicity against human Ketr3 cells by MTT assay
Format: functional, cell-based
pIC50: −log10 of the molar value.
# pIC50 values compiled below

| Molecule | Observed |
| --- | --- |
| C[C@@H](CO)CCC(=O)[C@@H](C)C1C[C@@H](O[C@@H]2O[C@H](CO)[C@@H](O)[C@H](O)[C@H]2O[C@@H]2O[C@@H](C)[C@H](O)[C@@H](O)[C@H]2O)[C@H]2[C@@H]3CC[C@H]4C[C@@H](O)CC[C@]4(C)[C@H]3CC[C@]12C (some centres not stated) | < 5.00 |

Consider now this further molecule.
*Q* Would you kindly share the measured pIC50 for COc1ccc(C(=O)O[C@H]2[C@H](O[C@H]3CO[C@@H](O[C@H]4CC([C@H](C)C(=O)CC[C@@H](C)CO)[C@@]5(C)CC[C@H]6[C@@H](CC[C@H]7C[C@@H](O)CC[C@@]76C)[C@H]45)[C@H](OC(C)=O)[C@H]3O)OC[C@@H](O)[C@@H]2O)cc1 (some centres not stated) ?
*A* < 5.00

---

Test system: A549
Test: Cytotoxicity against human A549 cells by MTT assay
Type: functional, cell-based
Observable: IC50

Here are 3 compounds together with their reported answers.
| Compound | IC50 |
| --- | --- |
| C[C@@H](CO)CCC(=O)[C@@H](C)C1C[C@@H](O[C@@H]2O[C@H](CO)[C@@H](O)[C@H](O)[C@H]2O[C@@H]2O[C@@H](C)[C@H](O)[C@@H](O)[C@H]2O)[C@H]2[C@@H]3CC[C@H]4C[C@@H](O)CC[C@]4(C)[C@H]3CC[C@]12C (stereo partly drawn) | > 10 µM |
| C[C@@H](CO)CCC(=O)[C@@H](C)C1C[C@H](O[C@@H]2O[C@H](CO)[C@@H](O)[C@H](O)[C@H]2O[C@@H]2O[C@@H](C)[C@H](O)[C@@H](O)[C@H]2O)[C@H]2[C@@H]3CC[C@H]4C[C@@H](O)CC[C@]4(C)[C@H]3CC[C@]12C (stereo partly drawn) | > 10 µM |
| COc1ccc(C(=O)O[C@H]2[C@H](O[C@H]3CO[C@@H](O[C@H]4CC([C@H](C)C(=O)CC[C@@H](C)CO)[C@@]5(C)CC[C@H]6[C@@H](CC[C@H]7C[C@@H](O)CC[C@@]76C)[C@H]45)[C@H](OC(C)=O)[C@H]3O)OC[C@@H](O)[C@@H]2O)cc1 (stereo partly drawn) | > 10 µM |

Consider now this further compound.
*Q* Would you kindly share the measured IC50 for C[C@@H](CO)CCC(=O)[C@@H](C)C1C[C@@H](O[C@H]2O[C@H](CO)[C@@H](O)[C@H](O)[C@H]2O[C@@H]2O[C@@H](C)[C@H](O)[C@@H](O)[C@H]2O)[C@H]2[C@@H]3CC[C@H]4C[C@@H](O)CC[C@]4(C)[C@H]3CC[C@]12C (stereo partly drawn) ?
*A* > 10 µM

---

Test system: A2780
Experiment: Cytotoxicity against human A2780 cells by MTT assay
Format: functional, cell-based
pIC50: −log10 of the molar value.
Observable: pIC50

| Molecule | Observable | Observed |
| --- | --- | --- |
| COc1ccc(C(=O)O[C@H]2[C@H](O[C@H]3CO[C@@H](O[C@@H]4CC([C@H](C)C(=O)CC[C@@H](C)CO)[C@@]5(C)CC[C@H]6[C@@H](CC[C@H]7C[C@@H](O)CC[C@@]76C)[C@H]45)[C@H](OC(C)=O)[C@H]3O)OC[C@@H](O)[C@@H]2O)cc1 (some centres undefined) | pIC50 | < 5.00 |

*Q* # value lookup — system A2780, readout pIC50, item C[C@@H](CO)CCC(=O)[C@@H](C)C1C[C@@H](O[C@@H]2O[C@H](CO)[C@@H](O)[C@H](O)[C@H]2O[C@@H]2O[C@@H](C)[C@H](O)[C@@H](O)[C@H]2O)[C@H]2[C@@H]3CC[C@H]4C[C@@H](O)CC[C@]4(C)[C@H]3CC[C@]12C (some centres undefined)
*A* < 5.00

*Q* How about this molecule: COc1ccc(C(=O)O[C@H]2[C@H](O[C@@H]3[C@@H](OC(C)=O)[C@H](O[C@@H]4CC([C@H](C)C(=O)CC[C@@H](C)CO)[C@@]5(C)CC[C@H]6[C@@H](CC[C@H]7C[C@@H](O)CC[C@@]76C)[C@H]45)OC[C@@H]3O)OC[C@@H](O)[C@@H]2O)cc1 (some centres undefined)
*A* 6.26

*Q* How about this molecule: C[C@@H](CO)CCC(=O)[C@@H](C)C1C[C@H](O[C@@H]2O[C@H](CO)[C@@H](O)[C@H](O)[C@H]2O[C@@H]2O[C@@H](C)[C@H](O)[C@@H](O)[C@H]2O)[C@H]2[C@@H]3CC[C@H]4C[C@@H](O)CC[C@]4(C)[C@H]3CC[C@]12C (some centres undefined)
*A* < 5.00

---

System: A549
Assay: Cytotoxicity against human A549 cells by MTT assay
Assay type: functional, cell-based
Observable: IC50

*Q* # value lookup — system A549, readout IC50, item C[C@@H](CO)CCC(=O)[C@@H](C)C1C[C@H](O[C@H]2O[C@H](CO)[C@@H](O)[C@H](O)[C@H]2O[C@@H]2O[C@@H](C)[C@H](O)[C@@H](O)[C@H]2O)[C@H]2[C@@H]3CC[C@H]4C[C@@H](O)CC[C@]4(C)[C@H]3CC[C@]12C (stereo partly specified)
*A* > 10 µM

---

Test system: A2780
Assay: Cytotoxicity against human A2780 cells by MTT assay
Type: functional, cell-based
# IC50 values compiled below

Here are 4 molecules together with their reported answers.
| Molecule | IC50 |
| --- | --- |
| C[C@@H](CO)CCC(=O)[C@@H](C)C1C[C@@H](O[C@H]2O[C@H](CO)[C@@H](O)[C@H](O)[C@H]2O[C@@H]2O[C@@H](C)[C@H](O)[C@@H](O)[C@H]2O)[C@H]2[C@@H]3CC[C@H]4C[C@@H](O)CC[C@]4(C)[C@H]3CC[C@]12C (stereo not given in full) | > 10 µM |
| C[C@@H](CO)CCC(=O)[C@@H](C)C1C[C@H](O[C@H]2O[C@H](CO)[C@@H](O)[C@H](O)[C@H]2O[C@@H]2O[C@@H](C)[C@H](O)[C@@H](O)[C@H]2O)[C@H]2[C@@H]3CC[C@H]4C[C@@H](O)CC[C@]4(C)[C@H]3CC[C@]12C (stereo not given in full) | > 10 µM |
| COc1ccc(C(=O)O[C@H]2[C@H](O[C@H]3CO[C@@H](O[C@H]4CC([C@H](C)C(=O)CC[C@@H](C)CO)[C@@]5(C)CC[C@H]6[C@@H](CC[C@H]7C[C@@H](O)CC[C@@]76C)[C@H]45)[C@H](OC(C)=O)[C@H]3O)OC[C@@H](O)[C@@H]2O)cc1 (stereo not given in full) | > 10 µM |
| C[C@@H]1CC[C@@]2(OC1)O[C@H]1C[C@H]3[C@@H]4CC=C5C[C@@H](O[C@@H]6O[C@H](CO)[C@@H](O[C@@H]7O[C@@H](C)[C@H](O)[C@@H](O)[C@H]7O)[C@H](O)[C@H]6O[C@@H]6O[C@@H](C)[C@H](O)[C@@H](O)[C@H]6O)CC[C@]5(C)[C@H]4CC[C@]3(C)[C@H]1[C@@H]2C [DIOSCIN] | 0.581 µM |

Consider now this further molecule.
*Q* Would you kindly share the measured IC50 for COc1ccc(C(=O)O[C@H]2[C@H](O[C@@H]3[C@@H](OC(C)=O)[C@H](O[C@H]4CC([C@H](C)C(=O)CC[C@@H](C)CO)[C@@]5(C)CC[C@H]6[C@@H](CC[C@H]7C[C@@H](O)CC[C@@]76C)[C@H]45)OC[C@@H]3O)OC[C@@H](O)[C@@H]2O)cc1 (stereo not given in full) ?
*A* > 10 µM

---

System: KETR3
Test: Cytotoxicity against human Ketr3 cells by MTT assay
Type: functional, cell-based
pIC50: −log10 of the molar value.
Observable: pIC50

Here are 6 molecules together with their reported answers.
| Molecule | pIC50 |
| --- | --- |
| C[C@@H](CO)CCC(=O)[C@@H](C)C1C[C@H](O[C@@H]2O[C@H](CO)[C@@H](O)[C@H](O)[C@H]2O[C@@H]2O[C@@H](C)[C@H](O)[C@@H](O)[C@H]2O)[C@H]2[C@@H]3CC[C@H]4C[C@@H](O)CC[C@]4(C)[C@H]3CC[C@]12C (some centres not stated) | < 5.00 |
| COc1ccc(C(=O)O[C@H]2[C@H](O[C@@H]3[C@@H](OC(C)=O)[C@H](O[C@H]4CC([C@H](C)C(=O)CC[C@@H](C)CO)[C@@]5(C)CC[C@H]6[C@@H](CC[C@H]7C[C@@H](O)CC[C@@]76C)[C@H]45)OC[C@@H]3O)OC[C@@H](O)[C@@H]2O)cc1 (some centres not stated) | < 5.00 |
| C[C@@H](CO)CCC(=O)[C@@H](C)C1C[C@H](O[C@H]2O[C@H](CO)[C@@H](O)[C@H](O)[C@H]2O[C@@H]2O[C@@H](C)[C@H](O)[C@@H](O)[C@H]2O)[C@H]2[C@@H]3CC[C@H]4C[C@@H](O)CC[C@]4(C)[C@H]3CC[C@]12C (some centres not stated) | < 5.00 |
| COc1ccc(C(=O)O[C@H]2[C@H](O[C@H]3CO[C@@H](O[C@@H]4CC([C@H](C)C(=O)CC[C@@H](C)CO)[C@@]5(C)CC[C@H]6[C@@H](CC[C@H]7C[C@@H](O)CC[C@@]76C)[C@H]45)[C@H](OC(C)=O)[C@H]3O)OC[C@@H](O)[C@@H]2O)cc1 (some centres not stated) | < 5.00 |
| C[C@@H](CO)CCC(=O)[C@@H](C)C1C[C@@H](O[C@H]2O[C@H](CO)[C@@H](O)[C@H](O)[C@H]2O[C@@H]2O[C@@H](C)[C@H](O)[C@@H](O)[C@H]2O)[C@H]2[C@@H]3CC[C@H]4C[C@@H](O)CC[C@]4(C)[C@H]3CC[C@]12C (some centres not stated) | < 5.00 |
| C[C@@H]1CC[C@@]2(OC1)O[C@H]1C[C@H]3[C@@H]4CC=C5C[C@@H](O[C@@H]6O[C@H](CO)[C@@H](O[C@@H]7O[C@@H](C)[C@H](O)[C@@H](O)[C@H]7O)[C@H](O)[C@H]6O[C@@H]6O[C@@H](C)[C@H](O)[C@@H](O)[C@H]6O)CC[C@]5(C)[C@H]4CC[C@]3(C)[C@H]1[C@@H]2C | 6.35 |

Consider now this further molecule.
*Q* Would you kindly share the measured pIC50 for COc1ccc(C(=O)O[C@H]2[C@H](O[C@@H]3[C@@H](OC(C)=O)[C@H](O[C@@H]4CC([C@H](C)C(=O)CC[C@@H](C)CO)[C@@]5(C)CC[C@H]6[C@@H](CC[C@H]7C[C@@H](O)CC[C@@]76C)[C@H]45)OC[C@@H]3O)OC[C@@H](O)[C@@H]2O)cc1 (some centres not stated) ?
*A* 7.00
